- Target system: T1, P3028 (VFDEFKPLVEEPQNLIK, SEQ ID NO: 185), His-tagged (human)
- T1 construct: Synthetic fragment of human serum albumin (positions 397-413); used in solution as His-tagged peptide PGE73; also called PGE73; not shown: His-tag
- T1 peptide: VFDEFKPLVEEPQNLIK
- Run description: PEPSCAN ELISA; peptide on chip, His-P3028 added;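 note: peroxidase color development with ABTS and H2O2 substrate, OD405 imaged by CCD camera with image processing and taken as raw values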
Binary label based on RAMPO Score with cut-off 400 rampo units: below gives label 1, not below gives label 0.

KKLDTTFVKLSLFTER [KKLDTTFVKLSLFTER (SEQ ID NO: 318)] ... label 0
KKLDTFFVKLSLFTEK [KKLDTFFVKLSLFTEK (SEQ ID NO: 389)] ... label 1
KKLNTFFVKLSLFTER [KKLNTFFVKLSLFTER (SEQ ID NO: 498)] ... label 1
KKLDGFFVKLSLFTER [KKLDGFFVKLSLFTER (SEQ ID NO: 95)] ... label 1
KKNDTFFVKLSLFTER [KKNDTFFVKLSLFTER (SEQ ID NO: 292)] ... label 1
KKLDTSFVKLSLFTER [KKLDTSFVKLSLFTER (SEQ ID NO: 401)] ... label 0
KKLDTFFVKLSLFTEH [KKLDTFFVKLSLFTEH (SEQ ID NO: 528)] ... label 1
KKLDTFFVKLSLFRER [KKLDTFFVKLSLFRER (SEQ ID NO: 33)] ... label 1
KKLDTFFVKLNLFTER [KKLDTFFVKLNLFTER (SEQ ID NO: 347)] ... label 0
KKLDTFFVMLSLFTER [KKLDTFFVMLSLFTER (SEQ ID NO: 509)] ... label 1
KKLDTFFVKLSMFTER [KKLDTFFVKLSMFTER (SEQ ID NO: 353)] ... label 0
KKLDTFFVKLSKFTER [KKLDTFFVKLSKFTER (SEQ ID NO: 438)] ... label 1
KKLDMFFVKLSLFTER [KKLDMFFVKLSLFTER (SEQ ID NO: 305)] ... label 0
KKLDTFFVKLSCFTER [KKLDTFFVKLSCFTER (SEQ ID NO: 455)] ... label 1
KKLDTFFVKMSLFTER [KKLDTFFVKMSLFTER (SEQ ID NO: 336)] ... label 0
HKLDTFFVKLSLFTER [HKLDTFFVKLSLFTER (SEQ ID NO: 272)] ... label 0
KKLDTIFVKLSLFTER [KKLDTIFVKLSLFTER (SEQ ID NO: 314)] ... label 0
KKLDTFAVKLSLFTER [KKLDTFAVKLSLFTER (SEQ ID NO: 404)] ... label 0
KKLDTFFFKLSLFTER [KKLDTFFFKLSLFTER (SEQ ID NO: 326)] ... label 1
KKLDTFDVKLSLFTER [KKLDTFDVKLSLFTER (SEQ ID NO: 492)] ... label 1
KKLDTFFVKLSLFGER [KKLDTFFVKLSLFGER (SEQ ID NO: 377)] ... label 1
DKLDTFFVKLSLFTER [DKLDTFFVKLSLFTER (SEQ ID NO: 269)] ... label 1
KKLDTFFVKLSLYTER [KKLDTFFVKLSLYTER (SEQ ID NO: 503)] ... label 1
FKLDTFFVKLSLFTER [FKLDTFFVKLSLFTER (SEQ ID NO: 465)] ... label 1
KKLYTFFVKLSLFTER [KKLYTFFVKLSLFTER (SEQ ID NO: 303)] ... label 0
QKLDTFFVKLSLFTER [QKLDTFFVKLSLFTER (SEQ ID NO: 278)] ... label 0
KKLDTMFVKLSLFTER [KKLDTMFVKLSLFTER (SEQ ID NO: 315)] ... label 0
KKLDTFFVRLSLFTER [KKLDTFFVRLSLFTER (SEQ ID NO: 331)] ... label 1
KKLSTFFVKLSLFTER [KKLSTFFVKLSLFTER (SEQ ID NO: 451)] ... label 1
